# SYSTEM_TESTED: T1, VEGF-D (recombinant human; source not given) (human, UniProt O43915 89-205, limits assumed)
# T1 construct: also used here as target of IC50 values averaged over Source 1 and Source 2; also called vascular endothelial growth factor-D
# T1 sequence: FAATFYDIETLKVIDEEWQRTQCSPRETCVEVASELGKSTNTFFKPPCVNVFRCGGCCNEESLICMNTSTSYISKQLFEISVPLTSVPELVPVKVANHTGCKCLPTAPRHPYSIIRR
# METHOD: SPR (BIAcore), VEGF-D amine-coupled on CM5, purified scFv as analyte
Listed binders paired with reported Kd
METRIC: Kd (nM)

BINDER: scFv clone CJ37 (scFv) scFv: QVQLVQSGAEVKQPGASVKVSCKASGYTFTGYNMYWVRQAPGQGLEWMGYIDPYNGDTTYNQKFKGRVTMTTDTSTSTAYMKLRSLRSDDTAVYYCARTSYYGGMDYWGRGTLVTVASGGGASGGGGSGGGGSDIVMTQTPLSSPVTLGQPASISCRSSQSLVHSNGNTYLHWLQQRPGQPPRLLIYKVSNRFSGVPDRFSGSGAGTDFTLKISRVEAEDVGVYYCSQSTHVPRTFGRGTKLEIKR
METRIC: Kd
OBSERVED_MEASUREMENT: 3.55
//
BINDER: scFv clone A63 (scFv) scFv: QVQLVQSGAKVKQPGASVKASCKASGYTFTGYNMYWVRQAPGQGLEWMGYIDPYNGDTTYNQKFKGRVTMTTDTSTSTAYMELRSLRSDDTAVYYCARTSYYGGMDYWGRGTLVTVASGGGASGGGGSGGGGSDIVMTQTPLSSPVTLGQPASISCRSSQSLVHSNGNTYLHWLQQRPGQPPRLLIYKVSNRFSGVPDRFSGSGAGTDFTLKISRVEAEDVGVYYCSQSTHVPRTFGQGTKLEIKR
METRIC: Kd
OBSERVED_MEASUREMENT: 4.83
//
BINDER: humanized scFv 1A (scFv, also called 1A scFv; clone 1A) scFv: QVQLVQSGAEVKQPGASVKVSCKASGYTFTGYNMYWVRQAPGQGLEWMGYIDPYNGDTTYNQKFKGRVTMTTDTSTSTAYMELRSLRSDDTAVYYCARTSYYGGMDYWGRGTLVTVASGGGASGGGGSGGGGSDIVMTQTPLSSPVTLGQPASISCRSSQSLVHSNGNTYLHWLQQRPGQPPRLLIYKVSNRFSGVPDRFSGSGAGTDFTLKISRVEAEDVGVYYCSQSTHVPRTFGQGTKLEIKR
METRIC: Kd
OBSERVED_MEASUREMENT: 13.1
